- method.summary: NCI Yeast Anticancer Drug Screen. Data for the sgs1 mgt1 strain (AID 161);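 further: 0% = growth of cultures given vehicle only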
- run.parameters: S. cerevisiae sgs1 mgt1 strain, at 50.0 µM, stronger effect = higher value
About 79,000 compounds went through this panel and 15% of them were active in at least one assay; those are over-represented in the sample as a whole.
# key: entry, value: growth inhibition

| compound | growth inhibition [%] |
| --- | --- |
| CCCCC(CC)OC(=O)Cc1ccccc1 (configuration not stated) | 13.1 |
| C(=C\c1nc2ccccc2nc1/C=C/c1ccccc1)/c1ccccc1 | -13.8 |
| CCOC(=O)/C(O)=C\c1cc(Br)c(OC)cc1[N+](=O)[O-] | 58.4 |
| CCC(C(=O)NC(C)c1ccc(-c2ccccc2)cc1)c1ccccc1 (configuration not stated) | 10 |
| CC(=O)N(C)O | -4.05 |
| O=C(O)C1CCC1C(=O)O (configuration not stated) | -23.5 |
| O=NN(CCCl)C(=O)NCCc1cccc[n+]1[O-] | -14.1 |
| CCc1nnc2ncccn12 | 4.25 |
| CSc1ccc(NC(=O)Nc2cccc(F)c2)cc1 | 27.2 |
| CCCCCCCCCCCC[N+]12CC[N+](C)(CC1)CC2 | -10.7 |
| CC(C)=C1C2CCC1[C@H](COS(C)(=O)=O)[C@@H]2COS(C)(=O)=O | 4.45 |
| CCCCOC(=O)C(C)OC(=O)/C=C\C(=O)OC(C)C(=O)OCCCC (configuration not stated) | 6.9 |
| Cc1cc(C)cc(O)c1 | -42 |
| C(#Cc1ccccc1)/C=C/C(=C\c1ccccc1)c1ccccc1 | -4.9 |
| CCC1(CC)C(=O)N=C(c2ccccc2)N1C | 8.15 |
| CCCCCCCCCCCCCCCCn1/c(=N\N=O)sc2ccccc21 | -8.4 |
| CC1=NN2C(c3ccc(Cl)cc3)=CSC2=NC(C)(C)C1 | -3.1 |
| O=S(=O)(NCCNS(=O)(=O)c1ccccc1)c1ccccc1 | 10.5 |
| CCc1cccc(CC)c1NC(=O)/C=C/C(=O)O | -4.75 |
| CCC(C(=O)c1ccccc1)[n+]1ccccc1 (configuration not stated) | -6.7 |
| N#CC1C(=O)NC(=O)C(C#N)C1c1ccc(Cl)cc1Cl (configuration not stated) | 32.6 |
| Nc1ccc(S(=O)(=O)O)cc1 | 2.35 |
| CN(Cc1cnc2nc(N)nc(N)c2n1)c1ccc(C(=O)NC(CCC(=O)OCc2cc3c(cc2Cl)OCO3)C(=O)OCc2cc3c(cc2Cl)OCO3)cc1 (configuration not stated) | 42 |
| O=C(COc1ccc2c(=O)cc(-c3ccc(Cl)cc3)oc2c1)N1CCN(c2ccccc2)CC1 | -8.8 |
| CC(=O)OCC1OC(SC2=NC(=O)/C(=C/c3ccccc3)S2)C(OC(C)=O)C(OC(C)=O)C1OC(C)=O (configuration not stated) | 55.4 |
| CCOC(=O)Nc1nc(-c2ccc(Br)cc2)cs1 | -2.1 |
| O=C1CCCC2(c3ccc([N+](=O)[O-])cc3)C1C1C(=O)CCCC12c1ccc([N+](=O)[O-])cc1 (configuration not stated) | 14.2 |
| O=C(O)C1CC(Cl)C(Cl)CC1C(=O)O (configuration not stated) | 0.85 |
| Nc1ccc(/C=C\C(=O)c2ccccc2)cc1 | 12.1 |
| O=C(NCc1ccc(Cl)c(Cl)c1)Nc1ccccc1F | 6.1 |
| COc1cc2c(c([N+](=O)[O-])c1)NC(=O)C(C)S2 (configuration not stated) | -19.4 |
| O=C1CSC(=S)N1c1ccco1 | 17.9 |
| CCN(CC)CCOC(=O)Cc1ccccc1 | 19.9 |
| CCCCN=C1Nc2nc(=NCCCC)nc3c(Br)cc(Br)c(n23)N1 | 5.4 |
| Cc1ccc(C)c(NCc2ccccc2)c1 | 8.85 |
| Fc1ccccc1/C=C/c1cnnc2ccccc12 | 16.1 |
| COc1cc(O)c2c(c1)C(=O)C1=C(C2=O)C(O)C[C@@](C)(O)C1 (some centres not stated) | 92 |
